Data credit: ChEMBL document CHEMBL1154840

# System: MC-38
# ASSAY: Growth inhibition of mouse Colon 38 cells after 72 hrs by sulforhodamine B assay relative to etoposide
# Type: functional
Respond with satisfied for RatioGI50 values of 200 and above, not satisfied for values below.

Could you please find out whether "CN(C)/C=C/C(=O)c1nn(-c2ccccc2)cc1C(=O)c1ccccc1" has RatioGI50 that meets 200 or exceeds it?
not satisfied

Could you please find out whether "CC(=O)c1nn(-c2ccccc2)cc1C(=O)c1ccccc1" has RatioGI50 that meets 200 or exceeds it?
not satisfied

Could you please find out whether "CC(=O)c1nn(-c2ccc(C)cc2)cc1C(=O)c1ccccc1" has RatioGI50 that meets 200 or exceeds it?
not satisfied

Could you please find out whether "CC(=O)c1nn(-c2ccccc2)cc1C(=O)c1nn(-c2ccccc2)cc1C(=O)c1nn(-c2ccccc2)cc1C(=O)c1ccccc1" has RatioGI50 that meets 200 or exceeds it?
not satisfied

Could you please find out whether "Cc1ccc(-n2cc(C(=O)c3ccccc3)c(C(=O)/C=C/N(C)C)n2)cc1" has RatioGI50 that meets 200 or exceeds it?
satisfied

Could you please find out whether "CC(=O)c1nn(-c2ccccc2)cc1C(=O)c1nn(-c2ccccc2)cc1C(=O)c1nn(-c2ccc(C)cc2)cc1C(=O)c1ccccc1" has RatioGI50 that meets 200 or exceeds it?
satisfied

Could you please find out whether "CN(C)/C=C/C(=O)c1nn(-c2ccccc2)cc1C(=O)c1nn(-c2ccccc2)cc1C(=O)c1ccccc1" has RatioGI50 that meets 200 or exceeds it?
not satisfied

Could you please find out whether "Cc1ccc(-n2cc(C(=O)c3ccccc3)c(C(=O)c3cn(-c4ccccc4)nc3C(=O)/C=C/N(C)C)n2)cc1" has RatioGI50 that meets 200 or exceeds it?
not satisfied
